Field: IC50. Provide a value for each of the compounds that follow.
- Tested on: PANC-1 cells
- Procedure Text: cell viability assay in PANC-1 cells (compound alone, + 100 ng/ml TNFa, + 300 ng/ml TRAIL)
- Type: cell-based
- Recorded Conditions: with 100 ng/ml TNFa; Tables 15-18; read-out: IC50 (uM) in cell viability assay in PANC-1 cells: Cmpnd + 100 ng/ml TNFa
Answer format: numeric, µM implied, no suffix.

Look at this compound and give its reported IC50. CN[C@@H](C)C(=O)N[C@@H](CCC(=O)Nc1cccc(C#Cc2cccc(NC(=O)CC[C@H](NC(=O)[C@H](C)NC)C(=O)N3CCC[C@H]3C(=O)N[C@@H]3CCCc4ccccc43)c2)c1)C(=O)N1CCC[C@H]1C(=O)N[C@@H]1CCCc2ccccc21 [Compound P2-49]
0.033

Look at this compound and give its reported IC50. "CN[C@@H](C)C(=O)N[C@H](C(=O)N1CCC[C@H]1c1cc(C(=O)OC)c(-c2cn(CC#CC#CCn3cc(-c4oc([C@@H]5CCCN5C(=O)[C@@H](NC(=O)[C@H](C)NC)C(C)(C)C)cc4C(=O)OC)c4ccccc43)c3ccccc23)o1)C(C)(C)C"
0.0342

Look at this compound and give its reported IC50. "C#CC[C@H](NC(=O)[C@H](C)NC)C(=O)N1C[C@@H](NC(=O)c2cc(N)cc(C(=O)N[C@H]3C[C@@H](C(=O)N[C@@H]4CCCc5ccccc54)N(C(=O)[C@@H](NC(=O)[C@H](C)NC)C(C)(C)C)C3)c2)C[C@H]1C(=O)N[C@@H]1CCCc2ccccc21"
0.0229

Look at this compound and give its reported IC50. CN[C@@H](C)C(=O)N[C@@H](CCCCNC(=O)NCCCC[C@H](NC(=O)[C@H](C)NC)C(=O)N1C[C@@H](Oc2ccccc2)C[C@H]1C(=O)N[C@@H]1CCCc2ccccc21)C(=O)N1C[C@@H](Oc2ccccc2)C[C@H]1C(=O)N[C@@H]1CCCc2ccccc21 [Compound P2-37]
0.174

Look at this compound and give its reported IC50. CC[C@@H](NC)C(=O)N[C@@H](C(=O)N[C@@H](C)C(=O)N[C@H](COCC#CC#CCOC[C@@H](NC(=O)C1CCCN1C(=O)[C@@H](NC(=O)[C@H](C)NC)C(C)(C)C)C1CCCCC1)C(C)C)C1CCCCC1 (some centres unmarked)
0.005

Look at this compound and give its reported IC50. CN[C@@H](C)C(=O)N[C@@H](CCNC(=O)NCC[C@H](NC(=O)[C@H](C)NC)C(=O)N1CCC[C@H]1C(=O)N[C@@H]1CCCc2ccccc21)C(=O)N1CCC[C@H]1C(=O)N[C@@H]1CCCc2ccccc21 [Compound P2-39]
0.349

Look at this compound and give its reported IC50. CN[C@@H](C)C(=O)N[C@@H](Cc1ccc(NC(=O)Nc2ccc(C[C@H](NC(=O)[C@H](C)NC)C(=O)N3CCC[C@H]3C(=O)N[C@@H]3CCCc4ccccc43)cc2)cc1)C(=O)N1CCC[C@H]1C(=O)N[C@@H]1CCCc2ccccc21 [Compound P2-38]
0.021

Look at this compound and give its reported IC50. CN[C@@H](C)C(=O)N[C@@H](CC(=O)NCCNC(=O)C[C@H](NC(=O)[C@H](C)NC)C(=O)N1CCC[C@H]1C(=O)N[C@@H]1CCCc2ccccc21)C(=O)N1CCC[C@H]1C(=O)N[C@@H]1CCCc2ccccc21 [Compound P2-40]
0.19
